Where do the numbers come from? From PubChem BioAssay (EPA / NIEHS).

- Read-out: Vascular cell adhesion molecule 1 (VCAM1), VCAM1 (gene 7412)
- measurement-description: BSK_4H_VCAM1: BioMAP Diversity Plus: 4H Assay for Vascular cell adhesion molecule 1 (VCAM1) Biomarker Activity (AID 2283033)
- cond: primary human endothelial cells (HUVEC); actives raise or lower the signal
Calls of active or inactive are those of the source. The calls were made as follows: active = hit-call score of the fitted dose curve at least 0.9, where 1 is the maximum; inactive = score below 0.9.
experimental-readout: AC50

>>> df
                                    molecule               val
 0                    Nc1ccc(N=Nc2ccccc2)cc1          inactive
 1                    O=P(OCCCl)(OCCCl)OCCCl          inactive
 2                                   OCCOCCO          inactive
 3  CC(C)(O)c1cnn2c(-c3ccc(F)c(-c4c(F)cccc4C#N)c3)cnc2n1          inactive
 4                                     OCCCl          inactive
 5  CS(=O)(=O)NC(=O)c1cc(Oc2ccc(C(F)(F)F)cc2Cl)ccc1[N+](=O)[O-]          inactive
 6    Clc1ccc(C(c2ccc(Cl)cc2)C(Cl)(Cl)Cl)cc1  25.9 µM (active)
 7          CC(C)(OOC(C)(C)c1ccccc1)c1ccccc1  26.4 µM (active)
 8               CNC(=O)Oc1cccc2c1OC(C)(C)C2          inactive
 9  CCOc1cccc(C2(N3CCN(c4ccccc4)CC3)CCC(C)CC2)c1 (stereo not given)          inactive
10                         CCCCCCCCn1sccc1=O  9.24 µM (active)
11      CCC(C)c1ccc(O)cc1 (stereo not given)          inactive
12                                N#CC(Br)Br          inactive
13                              Clc1ccccc1Cl          inactive
14            CC(C)N(Cc1ccccc1)C(=O)C(C)(C)C          inactive
